STUDY_SYSTEM: NaV1.7 (Homo sapiens, UniProt Q15858)
Construct: expressed in transfected cells; tetracycline-inducible, kept under hygromycin and blasticidin
Sequence (Q15858 whole entry): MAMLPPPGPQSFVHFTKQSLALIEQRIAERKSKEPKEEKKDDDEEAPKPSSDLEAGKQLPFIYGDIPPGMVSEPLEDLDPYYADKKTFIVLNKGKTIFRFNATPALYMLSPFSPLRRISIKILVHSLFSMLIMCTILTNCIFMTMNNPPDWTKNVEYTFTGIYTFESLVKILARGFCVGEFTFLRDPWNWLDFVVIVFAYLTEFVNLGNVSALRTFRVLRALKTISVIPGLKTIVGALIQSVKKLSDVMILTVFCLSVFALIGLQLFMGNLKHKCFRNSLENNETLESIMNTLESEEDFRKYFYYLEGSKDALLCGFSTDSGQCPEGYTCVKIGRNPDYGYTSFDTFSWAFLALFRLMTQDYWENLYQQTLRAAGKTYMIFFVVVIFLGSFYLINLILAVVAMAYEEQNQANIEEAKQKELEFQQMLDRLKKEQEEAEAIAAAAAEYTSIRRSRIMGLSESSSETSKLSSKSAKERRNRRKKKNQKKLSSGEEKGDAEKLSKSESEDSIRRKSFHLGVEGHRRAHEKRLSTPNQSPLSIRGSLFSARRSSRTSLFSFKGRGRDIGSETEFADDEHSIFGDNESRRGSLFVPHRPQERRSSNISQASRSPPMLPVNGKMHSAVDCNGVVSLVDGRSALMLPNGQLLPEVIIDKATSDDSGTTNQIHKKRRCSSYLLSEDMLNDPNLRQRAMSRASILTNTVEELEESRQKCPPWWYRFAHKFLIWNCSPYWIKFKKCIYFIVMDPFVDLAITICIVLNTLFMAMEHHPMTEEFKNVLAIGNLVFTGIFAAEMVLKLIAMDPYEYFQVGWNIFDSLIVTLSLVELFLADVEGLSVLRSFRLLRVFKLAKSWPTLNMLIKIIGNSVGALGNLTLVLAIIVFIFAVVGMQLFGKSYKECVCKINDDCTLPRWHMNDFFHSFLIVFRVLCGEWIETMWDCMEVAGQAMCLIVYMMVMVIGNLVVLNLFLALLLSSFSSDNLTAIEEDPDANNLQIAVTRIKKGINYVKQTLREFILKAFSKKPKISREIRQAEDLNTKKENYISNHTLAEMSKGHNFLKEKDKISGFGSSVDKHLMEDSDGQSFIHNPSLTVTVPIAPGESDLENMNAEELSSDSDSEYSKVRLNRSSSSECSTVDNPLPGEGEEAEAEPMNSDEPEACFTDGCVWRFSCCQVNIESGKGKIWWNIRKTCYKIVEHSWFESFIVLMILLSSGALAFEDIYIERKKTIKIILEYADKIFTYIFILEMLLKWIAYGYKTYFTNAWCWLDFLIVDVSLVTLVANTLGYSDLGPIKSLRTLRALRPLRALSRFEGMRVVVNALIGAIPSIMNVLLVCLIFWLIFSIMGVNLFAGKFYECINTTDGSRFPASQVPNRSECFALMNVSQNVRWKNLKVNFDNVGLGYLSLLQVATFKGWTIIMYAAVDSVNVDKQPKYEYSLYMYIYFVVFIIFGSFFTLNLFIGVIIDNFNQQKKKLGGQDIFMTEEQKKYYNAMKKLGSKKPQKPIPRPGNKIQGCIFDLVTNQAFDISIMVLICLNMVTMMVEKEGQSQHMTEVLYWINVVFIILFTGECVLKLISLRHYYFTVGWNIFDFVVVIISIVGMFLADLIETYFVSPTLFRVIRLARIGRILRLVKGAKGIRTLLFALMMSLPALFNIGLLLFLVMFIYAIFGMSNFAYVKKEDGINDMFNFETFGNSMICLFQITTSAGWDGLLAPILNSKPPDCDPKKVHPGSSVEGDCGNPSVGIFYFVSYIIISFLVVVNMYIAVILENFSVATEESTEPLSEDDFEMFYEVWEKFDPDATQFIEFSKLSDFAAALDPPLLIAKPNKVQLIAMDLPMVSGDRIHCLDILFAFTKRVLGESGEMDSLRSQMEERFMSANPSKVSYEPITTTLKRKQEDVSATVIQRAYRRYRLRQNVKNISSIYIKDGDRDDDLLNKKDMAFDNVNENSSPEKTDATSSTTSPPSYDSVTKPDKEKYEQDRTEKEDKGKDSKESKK
RUN_DESCRIPTION: Whole cell patch clamp, internal block of NaV1.7 current (compound in internal solution)
Assay type: cell-based
TEST_CONDITIONS: % inhibition at 10 μM, compound applied internally, manual patch clamp; read-out: Nav1.7 Intracellular Inhibition
inhibition at 10 µM reference

The following compounds have reported results that may help.
Cc1cccc(C)c1NC(=O)C[n+]1ccn(C(C)C)c1 has a reported inhibition at 10 µM of 40 to 70%

Cc1cccc(C)c1NC(=O)C[n+]1cccc(C(=O)N(C)C)c1 has a reported inhibition at 10 µM of 40 to 70%

CCNC(=O)Cn1cc[n+](CC(=O)Nc2c(C)cccc2C)c1 has a reported inhibition at 10 µM of < 40%

Cc1cccc(C)c1NC(=O)C[n+]1cccc(S(C)(=O)=O)c1 has a reported inhibition at 10 µM of 70 to 95%

Cc1cccc(C)c1NC(=O)C[n+]1cccc(Cc2ccccc2)c1 has a reported inhibition at 10 µM of 70 to 95%

CCn1ccc(C)[n+]1CC(=O)Nc1c(C)cccc1C has a reported inhibition at 10 µM of < 40%

Cc1cccc(C)c1NC(=O)C[n+]1cccn1C1CCCC1 has a reported inhibition at 10 µM of > 95%

Cc1cccc(C)c1NC(=O)C[n+]1cccc(-c2ccccc2)c1.[Br-] [Compound 12A] has a reported inhibition at 10 µM of > 95%

Okay, next one:
Cc1cccc(C)c1OC(=O)C[n+]1cccn1C1CCCCC1 has a reported inhibition at 10 µM of > 95%
